test.summary: chemical genetic growth profiling, strain panel (AID 1159580);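 further: tested at 20 µM; growth read once vehicle control cultures reached saturation at 30 °C; lower values mean less growth of the strain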
experimental.setup: S. cerevisiae deletion strains, growth OD, locus YLR370C, strain arc18, stronger effect = lower value
Among all 5,500 compounds or so, about 2,000 (36%) were called active. Inconclusive results (about 18%) are left out. This is one part of the list.
# note: exactly 1 is not below, so it is Not fulfilled; use Fulfilled for normalized growth strictly under it

Examples from the recorded data:
>>> qualitative_label("O=c1c(O)c(-c2ccccc2)oc2cccc(O)c12")
"Fulfilled"
>>> qualitative_label("CC(=O)OC1CCC23CC1(C)CCC2C(C)(C)CC3OC(C)=O (stereo not drawn)")
"Not fulfilled"

Okay, next one:
Qu. Does COc1ccc(-c2c(O)c3c(OC)c4c(cc3oc2=O)OC(C)(C)C=C4)cc1 have normalized growth strictly under 1?
Ans. Fulfilled
